Target: T1, murine IL-11 (mouse, UniProt P47873 22-199)
T1 sequence: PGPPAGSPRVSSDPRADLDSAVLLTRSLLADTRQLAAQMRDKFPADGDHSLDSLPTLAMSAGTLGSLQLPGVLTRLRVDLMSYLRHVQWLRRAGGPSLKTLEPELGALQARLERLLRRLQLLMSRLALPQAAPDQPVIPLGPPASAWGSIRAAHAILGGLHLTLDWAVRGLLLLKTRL
Test: cell-based or functional assay
EXPERIMENTAL READOUT: RGA Efficacy (%)
Give bare numbers, in %.

TPP-26294 (antibody, V domains shown) VH: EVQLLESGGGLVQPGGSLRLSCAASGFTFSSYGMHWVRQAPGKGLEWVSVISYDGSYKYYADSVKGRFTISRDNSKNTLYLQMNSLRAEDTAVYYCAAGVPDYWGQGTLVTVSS VL: QSVLTQPPSASGTPGQRVTISCTGSSSNIGAAYDVHWYQQLPGTAPKLLIYSNNERPSGVPDRFSGSKSGTSASLAISGLRSEDEADYYCAAWDDSLNGPVFGGGTKLTVL = 97.9

Hey, can you go through the list below and give me RGA Efficacy (%) for every item?
1. TPP-26297 (antibody, V domains shown) VH: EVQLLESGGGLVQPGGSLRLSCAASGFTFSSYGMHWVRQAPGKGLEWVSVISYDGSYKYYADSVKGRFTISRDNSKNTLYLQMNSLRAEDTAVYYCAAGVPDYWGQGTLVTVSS VL: QSVLTQPPSASGTPGQRVTISCTGSSSNIGAGYDVHWYQQLPGTAPKLLIYSNNERPSGVPDRFSGSKSGTSASLAISGLRSEDEADYYCAAWQDSLNGPVFGGGTKLTVL
2. TPP-26313 (antibody, V domains shown) VH: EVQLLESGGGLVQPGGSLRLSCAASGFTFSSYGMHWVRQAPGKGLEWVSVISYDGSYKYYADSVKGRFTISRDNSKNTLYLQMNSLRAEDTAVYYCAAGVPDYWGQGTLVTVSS VL: QSVLTQPPSASGTPGQRVTISCTGSSSNIGAYYDVHWYQQLPGTAPKLLIYSNNERPSGVPDRFSGSKSGTSASLAISGLRSEDEADYYCAAWDDSLNGPVFGGGTKLTVL

Result:
1: 93.5; 2: 96.2
